system-under-test: α2C adrenergic receptor (Homo sapiens)
Sequence (P18825 whole entry): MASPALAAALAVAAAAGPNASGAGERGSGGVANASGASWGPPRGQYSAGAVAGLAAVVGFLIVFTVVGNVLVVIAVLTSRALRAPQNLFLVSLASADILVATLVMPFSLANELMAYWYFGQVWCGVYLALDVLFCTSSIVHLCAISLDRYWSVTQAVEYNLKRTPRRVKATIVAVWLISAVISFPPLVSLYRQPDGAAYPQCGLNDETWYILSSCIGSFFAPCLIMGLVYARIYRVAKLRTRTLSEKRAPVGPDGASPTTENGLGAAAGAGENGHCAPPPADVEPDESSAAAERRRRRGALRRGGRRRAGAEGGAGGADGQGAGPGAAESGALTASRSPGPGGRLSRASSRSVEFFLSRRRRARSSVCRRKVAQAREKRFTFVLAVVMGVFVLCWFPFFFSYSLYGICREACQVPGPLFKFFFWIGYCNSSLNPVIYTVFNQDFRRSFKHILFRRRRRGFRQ
protocol-details: PDSP radioligand binding, α2C
stated-conditions: read-out: % inhibition at 10 µM; single concentration 10 µM
parameter-measured: inhibition at 10 µM (%)

1) CNC(=O)[C@@]12C[C@@H]1[C@@H](n1cnc3c(NCc4cccc(Cl)c4)nc(C#Cc4ccc(F)cc4)nc31)[C@H](O)[C@@H]2O [Compound 2] = 48
2) O[C@@H]1[C@H](O)[C@@H]2C[C@@H]2[C@H]1n1cnc2c(NC(C3CC3)C3CC3)nc(Cl)nc21 [Compound 10] = 0
3) Fc1ccc(C#Cc2nc(NCc3cccc(Cl)c3)c3nc[nH]c3n2)cc1F [Compound 8] = 83
4) CNC(=O)[C@@]12C[C@@H]1[C@@H](n1cnc3c(NCc4cccc(Cl)c4)nc(Cl)nc31)[C@H](O)[C@@H]2O [Compound 4] = 11
5) CNC(=O)[C@@]12C[C@@H]1[C@@H](n1cnc3c(NCc4cccc(Cl)c4)nc(C#Cc4ccccc4Cl)nc31)[C@H](O)[C@@H]2O [Compound 3] = 57
6) CNC(=O)[C@@]12C[C@@H]1[C@@H](n1cnc3c(NC)nc(C#Cc4ccc(F)c(F)c4)nc31)[C@H](O)[C@@H]2O [Compound 5] = 13
7) Clc1cccc(CNc2nc(Cl)nc3[nH]cnc23)c1 [Compound 9] = 87
8) O[C@@H]1[C@H](O)[C@@H]2C[C@@H]2[C@H]1n1cnc2c(NCc3cccc(Cl)c3)ncnc21 [Compound 7] = 51
9) O[C@@H]1[C@H](O)[C@@H]2C[C@@H]2[C@H]1n1cnc2c(NCc3cccc(Cl)c3)nc(C#Cc3ccc(F)c(F)c3)nc21 [Compound 6] = 11
